Listed here: items and their measured protein stability index.
B1: PBXIP1 (parent)
chain: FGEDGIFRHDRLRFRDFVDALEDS

variants of: B1; assay: protein stability index of a GFP-peptide fusion (GPS, HEK-293T) (PSI 1-6); higher = more stable; conditions: c terminus: a fixed tail appended;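 note: lentivirally expressed fusions sorted by FACS into six bins by GFP to DsRed ratio, PSI derived from sequencing read proportions per bin multiplied by bin number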
Write the number on its own, no unit after it.

{"SEQUENCE_STRING": "FGEDGIFRYDRLRFRDFVDALEDS [H9Y]", "ENDPOINT_RESULT": 2.46}
{"SEQUENCE_STRING": "FGEDGIFRHDRLRFRDFVDAAEDS [L21A]", "ENDPOINT_RESULT": 3.32}
{"SEQUENCE_STRING": "FGEDGIFRHDYLRFRDFVDALEDS [R11Y]", "ENDPOINT_RESULT": 2.35}
{"SEQUENCE_STRING": "FGEDGIFRHLRLRFRDFVDALEDS [D10L]", "ENDPOINT_RESULT": 2.16}
{"SEQUENCE_STRING": "FGEDGIFRHDRLRFKDFVDALEDS [R15K]", "ENDPOINT_RESULT": 2.9}

# ---- query variant ----
Incoming: Recorded protein stability index of FGEDGIFRHDKLRFRDFVDALEDS [R11K] , please.
Outgoing: 2.57
